biological target: alpha2-adrenoceptor (Rattus norvegicus); assay: Displacement of 3H-clonidine (2 nM) (alpha2-adrenoceptor affinity); type: binding
Sequence (P22909 whole entry): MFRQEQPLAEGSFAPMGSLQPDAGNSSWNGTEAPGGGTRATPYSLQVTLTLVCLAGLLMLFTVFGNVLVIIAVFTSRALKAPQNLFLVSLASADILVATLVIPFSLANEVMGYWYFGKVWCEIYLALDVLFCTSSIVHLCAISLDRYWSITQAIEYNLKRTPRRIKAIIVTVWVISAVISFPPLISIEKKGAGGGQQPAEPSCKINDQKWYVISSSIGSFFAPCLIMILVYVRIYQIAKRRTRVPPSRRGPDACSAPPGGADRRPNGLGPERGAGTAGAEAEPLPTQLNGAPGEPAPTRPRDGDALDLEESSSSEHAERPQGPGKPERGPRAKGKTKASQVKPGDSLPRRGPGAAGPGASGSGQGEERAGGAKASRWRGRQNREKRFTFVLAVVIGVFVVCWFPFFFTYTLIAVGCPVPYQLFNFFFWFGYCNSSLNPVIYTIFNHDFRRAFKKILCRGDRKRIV
measured.metric: Ki
State the value, then name its unit.

Incoming: Look up Ki of Cl.c1ccc2oc(-c3ncc[nH]3)cc2c1 [Example 1, hydrochloride] and report it.
Outgoing: 100 µM

* * *

test system: imidazoline preferring receptor (IR); assay: Displacement of 3H-idazoxan (4 nM) in the presence of (-)-adrenaline (IR affinity); type: binding, rat; conditions: selectivity ratio for IR/alpha1 from Ki values
# label = class 1 if Selectivity IR/α1 < 400 else class 0

# example entries with known answers
>>> df
                                   compound  class_name
0  COc1ccc2cc(-c3ncc[nH]3)oc2c1.Cl [Example 3]     class 1
1  COc1ccc2oc(-c3ncc[nH]3)cc2c1.Cl [Example 7]     class 1
2     Cl.Cn1ccnc1-c1cc2ccccc2o1 [Example 2]     class 0
3  Brc1ccc2oc(-c3ncc[nH]3)cc2c1.Cl [Example 6]     class 1

Could you now consider this next compound?
Incoming: State whether 400 exceeds Selectivity IR/α1 recorded for CCn1ccnc1-c1cc2ccc(OC)cc2o1.Cl [Example 9] .
Outgoing: class 1

Values compiled from patent US5310930A.
